These measurements were taken from patent US20100190832A1.

test.target: WT-TTR (Homo sapiens, UniProt P02766)
Construct: made in house
protocol.notes: Stagnant acid-mediated TTR aggregation (fibril formation) assay, turbidity at 340 nm
Format: biochemical
condition.set: pH 4.4, compound 100 μM, WT-TTR 7.2 μM, pH 4.4, 37° C.; read-out: % Inhibition
Please mark t if the recorded inhibition at 100 µM is equal to or greater than 0.7%, and f if it falls below.

INSERT INTO assay_data (compound, label) VALUES
  ('COc1cccc(C(=O)NC(c2ccccc2)c2cc(Cl)c3cccnc3c2O)c1 (stereo not shown)', 't'),
  ('O=C(NC1CC1)c1cc(Sc2cccc(Cl)c2)nc2ccccc12', 't'),
  ('Clc1ccccc1C1CC(c2cccs2)Nc2nnnn21 (stereo not shown)', 't'),
  ('O=C(Nc1c2c(nn1-c1ccc(F)cc1)C[S+]([O-])C2)c1ccccc1F (stereo not shown)', 'f'),
  ('COc1ccc(NC(=S)N(CCCN2CCOCC2)Cc2cccs2)cc1', 'f'),
  ('Cc1nc2c(C(=O)NCc3ccc(F)cc3)cnn2c(O)c1Cc1ccccc1F', 't'),
  ('Cn1ncc(/N=C/c2ccccc2O)c1C(=O)N1CCOCC1', 't'),
  ('O=C1/C(=C\c2ccc(-c3ccc(Cl)cc3)o2)SC(=S)N1c1cccc(Cl)c1', 'f'),
  ('O=c1c2ccccc2nc2sc(Nc3ccc(F)cc3F)nn12', 't'),
  ('CC(C)C(=O)NC(c1ccccc1)c1ccc2cccnc2c1O (stereo not shown)', 't'),
  ('COc1ccc(NC(=S)N(CCCN2CCOCC2)Cc2cccnc2)cc1', 't'),
  ('CCC(=O)NC(c1ccc2c(c1)OCO2)c1cc(Cl)c2cccnc2c1O (stereo not shown)', 't'),
  ('CCOC(=O)c1sc(=S)n(-c2ccc(Br)cc2)c1N', 'f'),
  ('CCOC(=O)c1sc(=S)n(-c2cccc3ccccc23)c1N', 'f'),
  ('O=C(NC(c1ccco1)c1cc(Cl)c2cccnc2c1O)c1cccnc1 (stereo not shown)', 't'),
  ('CCCCC1NC(C(=O)O)CS1 (stereo not shown)', 'f'),
  ('Oc1ccccc1-c1nnc(S)o1', 't'),
  ('O=c1/c(=C\c2ccccc2Cl)sc2nc3ccccc3n12', 't'),
  ('Nc1nc(Cl)cc(Oc2ccccc2F)n1', 't'),
  ('Oc1ccc(-c2nnc(S)o2)cc1', 't'),
  ('O=C(NCc1ccco1)c1cc(Sc2cccc(Cl)c2)nc2ccccc12', 't'),
  ('O=C1OC(c2ccc(Cl)cc2Cl)=N/C1=C/c1ccc(Cl)c(Cl)c1', 'f'),
  ('O=C(O)C1CSC(c2ccc(O)cc2)N1 (stereo not shown)', 'f'),
  ('Clc1ccc2nc(-c3ccc(Cl)s3)c(NC3CCCCC3)n2c1', 'f'),
  ('O=C(O)C1CSC(c2ccc(Cl)cc2)N1 (stereo not shown)', 'f'),
  ('O=C(O)C1CSC(c2cccnc2)N1 (stereo not shown)', 'f'),
  ('FC(F)(F)c1cccc(NC(=S)N(CCCN2CCCCC2)Cc2cccs2)c1', 't'),
  ('CCOC(=O)c1c(N)sc(C(=O)NC2CCCCC2)c1C', 't'),
  ('Cc1ccc2nc(NC(=O)c3ccccc3O)sc2c1', 'f'),
  ('Cc1ccccc1C1=N/C(=C\c2sccc2C)C(=O)O1', 'f'),
  ('O=C1/C(=C/c2ccc(Cl)cc2Cl)SC(=S)N1c1ccc(O)cc1', 'f'),
  ('Cc1ccccc1Nc1c(-c2ccc(O)cc2)nc2ccc(Cl)cn12', 'f'),
  ('O=C(c1cc(-c2ccc(Cl)s2)nc2ccccc12)N1CCOCC1', 'f'),
  ('Cc1ccccc1Nc1c(-c2ccc(Cl)s2)nc2ccc(Cl)cn12', 'f'),
  ('CCc1ccccc1NC(=S)N(CCN(C)C)Cc1cccs1', 'f'),
  ('O=[N+]([O-])c1ccc(Cl)cc1Sc1nc2ccccc2s1', 't');

----------
test.target: WT-TTR (Homo sapiens, UniProt P02766)
Construct: made in house
protocol.notes: Stagnant acid-mediated TTR aggregation (fibril formation) assay, turbidity at 340 nm
Type: biochemical
condition.set: 72 h, pH 4.4, compound 100 μM, WT-TTR 7.2 μM, pH 4.4, 37° C.; read-out: % FF
value.type: remaining activity at 100 µM (%)

INSERT INTO assay_data (compound, value_type, readout_unit, result_number) VALUES
  ('O=C(O)C1CSC(c2ccc(O)cc2)N1 (centres unmarked) [Compound K085-0008]', 'remaining activity at 100 µM', '%', 120),
  ('CCCCN1CCc2nc3c(ccc4ccccc43)c(O)c2C1 [Compound 3453-1352]', 'remaining activity at 100 µM', '%', 75.7),
  ('CSC1=NSC2=NC(=O)/C(=C\c3ccc(O)cc3)C(=N)N12 [Compound C146-0184]', 'remaining activity at 100 µM', '%', 72.7),
  ('Cc1nnc2c(Oc3ccc(Cl)cc3)nc3ccccc3n12 [Compound 5001-0261]', 'remaining activity at 100 µM', '%', 114),
  ('Cc1nc2c(ccc3ccccc32)c(O)c1CN1CCCC1 [Compound 3453-1335]', 'remaining activity at 100 µM', '%', 66.9);

----------
test.target: TTR (Homo sapiens, UniProt P02766)
Construct: made in house
protocol.notes: Dissociation constant by fluorescence titration (Adair equation, two sites)
Assay type: binding
condition.set: pH 4.4; read-out: Dissociation Constant Kd2
pKd: −log10 of the molar value.
value.type: pKd

INSERT INTO measurements (smiles_structure, value_type, result_number) VALUES
  ('O=C(O)c1ccc(Oc2ccc(Cl)cc2Cl)c(O)c1', 'pKd', 8.52),
  ('Oc1ccccc1-c1nnc(S)o1', 'pKd', 7.14),
  ('OCc1ccc(Oc2ccc(Cl)cc2Cl)c(O)c1', 'pKd', 4.86);

----------
# remaining activity at 100 µM per entry
test.target: WT-TTR (Homo sapiens, UniProt P02766)
Construct: made in house
protocol.notes: Stagnant acid-mediated TTR aggregation (fibril formation) assay, turbidity at 340 nm
Type: biochemical
condition.set: 72 h, pH 4.4, compound 100 μM, WT-TTR 7.2 μM, pH 4.4, 37° C.; read-out: % FF
value.type: remaining activity at 100 µM (%)

INSERT INTO measurements (molecule, test_target, readout_unit, result_number) VALUES
  ('CCc1ccc(Oc2cc(F)nc(N)n2)cc1', 'WT-TTR (Homo sapiens, UniProt P02766)', '%', 10.4),
  ('Clc1ccc2nc(-c3ccc(Cl)s3)c(NC3CCCCC3)n2c1', 'WT-TTR (Homo sapiens, UniProt P02766)', '%', 138),
  ('COC(=O)c1sc(=S)n(-c2ccc(Cl)c(Cl)c2)c1N', 'WT-TTR (Homo sapiens, UniProt P02766)', '%', 84.5),
  ('O=C(NC1CC1)c1cc(Sc2cccc(Cl)c2)nc2ccccc12', 'WT-TTR (Homo sapiens, UniProt P02766)', '%', 41.8),
  ('Cc1ccc(C2NC(C(=O)O)CS2)cc1 (stereo not drawn)', 'WT-TTR (Homo sapiens, UniProt P02766)', '%', 14.3),
  ('O=c1c2ccccc2nc2sc(Nc3ccc(F)cc3F)nn12', 'WT-TTR (Homo sapiens, UniProt P02766)', '%', -2.03),
  ('Nc1nc(F)cc(Oc2ccccc2F)n1', 'WT-TTR (Homo sapiens, UniProt P02766)', '%', 54.4),
  ('NN1C(=O)/C(=C\c2ccc(Cl)cc2)NC1=S', 'WT-TTR (Homo sapiens, UniProt P02766)', '%', 131),
  ('COc1ccc(/C=C2\SC(=S)N(c3ccc(O)cc3)C2=O)cc1', 'WT-TTR (Homo sapiens, UniProt P02766)', '%', 281);

----------
test.target: WT-TTR (Homo sapiens, UniProt P02766)
Construct: made in house
protocol.notes: Stagnant acid-mediated TTR aggregation (fibril formation) assay, turbidity at 340 nm
Assay type: biochemical
condition.set: Table 3, WT-TTR 7.2 μM; read-out: IC50
value.type: IC50 (µM)

INSERT INTO results (smiles_structure, value_type, result_number) VALUES
  ('COc1cc(C(=O)O)ccc1Oc1ccc([N+](=O)[O-])cc1[N+](=O)[O-]', 'IC50', 20),
  ('COc1cc(CO)ccc1Oc1ccc([N+](=O)[O-])cc1[N+](=O)[O-]', 'IC50', 20),
  ('COc1cc(C=O)ccc1Oc1ccccc1', 'IC50', 1.31);

----------
test.target: WT-TTR (Homo sapiens, UniProt P02766)
Construct: made in house
protocol.notes: Stagnant acid-mediated TTR aggregation (fibril formation) assay, turbidity at 340 nm
Type: biochemical
condition.set: 72 h, pH 4.4, compound 100 μM, WT-TTR 7.2 μM, pH 4.4, 37° C.; read-out: % FF
Description: Stagnant Acid-Mediated TTR Aggregation Assay. After 1 h, the samples were diluted with 0.5 ml of 200 mM sodium acetate buffer containing 100 mM KCl and 1 mM EDTA. […] The extent of aggregation was probed by turbidity measurements at 340 nm using Tecan GENios microplate reader. […] The IC50 was determined by plotting mean of % inhibition vs log and fitted to sigmoid equation: […]
value.type: remaining activity at 100 µM (%)

INSERT INTO measurements (molecule, value_type, result_number) VALUES
  ('CCN(CC)CCCN(Cc1ccco1)C(=S)Nc1ccc(OC)cc1 [Compound C087-0785]', 'remaining activity at 100 µM', 107),
  ('Nc1cc(O)nc(SCC(=O)N2CCOCC2)n1 [Compound 3996-0165]', 'remaining activity at 100 µM', 112),
  ('Cc1ccccc1Nc1c(-c2ccc(O)cc2)nc2ccc(Cl)cn12 [Compound C273-0223]', 'remaining activity at 100 µM', 130),
  ('O=C(O)CCc1nc(-c2cccs2)no1 [Compound C066-2523]', 'remaining activity at 100 µM', 32.1),
  ('Oc1ccc(-c2nc3ncccn3c2Nc2ccc(Cl)cc2)cc1 [Compound C239-0727]', 'remaining activity at 100 µM', 135),
  ('O=C1/C(=C/c2ccc(Cl)cc2Cl)SC(=S)N1c1ccc(O)cc1 [Compound 2189-0835]', 'remaining activity at 100 µM', 291),
  ('O=C(O)C1CSC(c2ccc(Cl)cc2Cl)N1 (stereo not shown) [Compound K085-0018]', 'remaining activity at 100 µM', 22.3),
  ('CCOC(=O)c1sc(=S)n(-c2ccc(Br)cc2)c1N [Compound R052-0946]', 'remaining activity at 100 µM', 164),
  ('Cn1c(=O)c2c(nc(Oc3ccc(-n4cnnn4)cc3)n2C)n(C)c1=O [Compound 3615-0252]', 'remaining activity at 100 µM', 155),
  ('O=C(Nc1c2c(nn1-c1ccc(F)cc1)C[S+]([O-])C2)c1ccccc1F (stereo not shown) [Compound C077-0216]', 'remaining activity at 100 µM', 104),
  ('CCc1ccccc1NC(=S)N(CCN(C)C)Cc1cccs1 [Compound C087-0905]', 'remaining activity at 100 µM', 108),
  ('CCCCC1NC(C(=O)O)CS1 (stereo not shown) [Compound K085-0025]', 'remaining activity at 100 µM', 128),
  ('Cc1nc2c(ccc3ccccc32)c(O)c1CN(C)Cc1ccccc1 [Compound 3453-1353]', 'remaining activity at 100 µM', 105),
  ('O=C(O)C1CSC(c2cccnc2)N1 (stereo not shown) [Compound K085-0021]', 'remaining activity at 100 µM', 144),
  ('O=C(Nc1nnc[nH]1)c1c(Cl)ccc(Cl)c1Cl [Compound 3232-0353]', 'remaining activity at 100 µM', 11.5),
  ('CC(C)C(=O)NC(c1ccccc1)c1ccc2cccnc2c1O (stereo not shown) [Compound K839-0067]', 'remaining activity at 100 µM', 4.6),
  ('CCOC(=O)c1c(N)sc(C(=O)Nc2cc(C)cc(C)c2)c1C [Compound R052-1596]', 'remaining activity at 100 µM', 87.8),
  ('O=C(O)C1CSC(c2ccc(Cl)c(Cl)c2)N1 (stereo not shown) [Compound K085-0014]', 'remaining activity at 100 µM', 102),
  ('O=C1OC(/C=C/c2ccc(Cl)cc2Cl)=NC/1=C\c1cccs1 [Compound K088-1892]', 'remaining activity at 100 µM', 294);
